Data credit: patent US5215769A

Assay: physchem
parameter-measured: solubility (mg/mL)
Enter your answer as a number in mg/mL; do not include the unit.

What does the data say about its solubility? Entry: O=C(O)CC(O)C(=O)O (racemic) [calcium malate] 660
